details: in methanol, 311.65 K
parameterMeasured: solubility (mole fraction)
# output: bare number, no unit

Value of measured solubility (mole fraction) for the entry `Brc1sc(Br)c(Br)c1Br` : 0.00103

* * *

conditions: in chloroform, 281.25 K
parameterMeasured: solubility (mole fraction)
# output: bare number, no unit

Value of measured solubility (mole fraction) for the entry `Brc1sc(Br)c(Br)c1Br` : 0.0229

* * *

settings: in n-propanol, 297.15 K
parameterMeasured: solubility (mole fraction)
# output: bare number, no unit

Value of measured solubility (mole fraction) for the entry `Brc1sc(Br)c(Br)c1Br` : 0.00364

* * *

settings: in chloroform, 307.15 K
parameterMeasured: solubility (mole fraction)
# output: bare number, no unit

Value of measured solubility (mole fraction) for the entry `Brc1sc(Br)c(Br)c1Br` : 0.0536

The measurements presented in this section are drawn from BigSolDB 2.1.
